test.name: Acute toxicity (LD50), method of Lichtfield and Wilcoxon, mice
assay.setup: mouse, in vivo, ip, intraperitoneal
endpoint.name: LD50 (mg/kg)
Note: unit mg/kg is implicit; provide only the numeric part.

Challenge: Quick check: LD50 of CC(C)(Oc1cccc2ccccc12)C(=O)Nc1ccc(C(=O)O)cc1 [Compound 1] ?
Response given: 395

====

test.name: Acute toxicity (LD50), method of Lichtfield and Wilcoxon, rats
assay.setup: rat, in vivo, oral
endpoint.name: LD50 (mg/kg)
Reply numerically in mg/kg, unit not repeated.

Challenge: Recorded LD50 of CC(C)(Oc1cccc2ccccc12)C(=O)Nc1ccc(C(=O)O)cc1 , please.
Response given: 2200

Cited source: patent US4183954A
